Values from patent EP4685142A1

# Tested on: IL-1β in human PBMC cells
# assay.procedure: Inhibitory activity on IL-1β in human PBMC cells (LPS + Nigericin, ELISA)
# Type: cell-based
# measurement.setup: Homo sapiens, PBMC
pIC50: −log10 of the molar value.
measurement.name: pIC50

[[record]]
molecule = "CCN1CCC[C@@H](Nc2nnc(-c3ccc4sccc4c3O)n(C)c2=O)C1 [Compound 3]"
measurement_name = "pIC50"
result_number = 8.91


###

Listing of recorded concentration at 1 h by entry.
# assay.procedure: In vivo brain-to-plasma ratio in mice
# measurement.setup: male, mouse, plasma, po, 10 mg/kg
measurement.name: concentration at 1 h (ng/mL)

[[record]]
compound = "CCN1CCC[C@@H](Nc2nnc(-c3ccc4sccc4c3O)n(CC)c2=O)C1 [Compound 12]"
result_number = 3840

[[record]]
compound = "CN1C[C@H](F)C[C@@H](Nc2nnc(-c3ccc4sccc4c3O)n(C)c2=O)C1 [Compound 40]"
result_number = 7240

[[record]]
compound = "CN1CCC[C@@H](Nc2nnc(-c3ccc4sccc4c3O)n(C)c2=O)C1 [Compound 4]"
result_number = 3340


###

# assay.procedure: Pharmacokinetic evaluation in Balb/c mice
# Assay type: in vivo
# measurement.setup: mouse, in vivo; 5 mg/kg, PO, Balb/c mice; read-out: Cmax
Listing of recorded Cmax by entry.
measurement.name: Cmax (ng/mL)

[[record]]
compound = "CN1CCC[C@@H](Nc2nnc(-c3ccc4c(c3O)CCC4=C(F)F)n(C)c2=O)C1 [Compound 13]"
result_number = 11400

[[record]]
compound = "CCn1c(-c2ccc3sccc3c2O)nnc(N[C@@H]2C[C@@H](F)CN(C)C2)c1=O [Compound 43]"
result_number = 5070

[[record]]
compound = "Cc1nc(N[C@@H]2CCCC[C@H]2O)nnc1-c1ccc(C(F)(F)F)cc1O [Ref-2, reference compound]"
result_number = 246

[[record]]
compound = "CC(C)N1CCC[C@@H](Nc2nnc(-c3ccc4sccc4c3O)n(C)c2=O)C1 [Compound 36]"
result_number = 1510

[[record]]
compound = "CCn1c(-c2ccc3sccc3c2O)nnc(N[C@@H]2CCCN(C)C2)c1=O [Compound 17]"
result_number = 1850

[[record]]
compound = "CCN1CCC[C@@H](Nc2nnc(-c3ccc4c(c3O)CCC4=C(F)F)n(C)c2=O)C1 [Compound 2]"
result_number = 2690

[[record]]
compound = "[2H]C([2H])([2H])n1c(-c2ccc3sccc3c2O)nnc(N[C@@H]2CCCN(CC)C2)c1=O [Compound 55]"
result_number = 1710

[[record]]
compound = "CN1CCC[C@@H](Nc2nnc(-c3ccc(C(F)(F)F)cc3O)n(C)c2=O)C1 [Ref-3, reference compound]"
result_number = 1140


###

Listing of recorded 20 uM Inhibition ratio by entry.
# assayed.target: hERG potassium ion channel (Homo sapiens, UniProt Q12809)
# Sequence (Q12809 whole entry): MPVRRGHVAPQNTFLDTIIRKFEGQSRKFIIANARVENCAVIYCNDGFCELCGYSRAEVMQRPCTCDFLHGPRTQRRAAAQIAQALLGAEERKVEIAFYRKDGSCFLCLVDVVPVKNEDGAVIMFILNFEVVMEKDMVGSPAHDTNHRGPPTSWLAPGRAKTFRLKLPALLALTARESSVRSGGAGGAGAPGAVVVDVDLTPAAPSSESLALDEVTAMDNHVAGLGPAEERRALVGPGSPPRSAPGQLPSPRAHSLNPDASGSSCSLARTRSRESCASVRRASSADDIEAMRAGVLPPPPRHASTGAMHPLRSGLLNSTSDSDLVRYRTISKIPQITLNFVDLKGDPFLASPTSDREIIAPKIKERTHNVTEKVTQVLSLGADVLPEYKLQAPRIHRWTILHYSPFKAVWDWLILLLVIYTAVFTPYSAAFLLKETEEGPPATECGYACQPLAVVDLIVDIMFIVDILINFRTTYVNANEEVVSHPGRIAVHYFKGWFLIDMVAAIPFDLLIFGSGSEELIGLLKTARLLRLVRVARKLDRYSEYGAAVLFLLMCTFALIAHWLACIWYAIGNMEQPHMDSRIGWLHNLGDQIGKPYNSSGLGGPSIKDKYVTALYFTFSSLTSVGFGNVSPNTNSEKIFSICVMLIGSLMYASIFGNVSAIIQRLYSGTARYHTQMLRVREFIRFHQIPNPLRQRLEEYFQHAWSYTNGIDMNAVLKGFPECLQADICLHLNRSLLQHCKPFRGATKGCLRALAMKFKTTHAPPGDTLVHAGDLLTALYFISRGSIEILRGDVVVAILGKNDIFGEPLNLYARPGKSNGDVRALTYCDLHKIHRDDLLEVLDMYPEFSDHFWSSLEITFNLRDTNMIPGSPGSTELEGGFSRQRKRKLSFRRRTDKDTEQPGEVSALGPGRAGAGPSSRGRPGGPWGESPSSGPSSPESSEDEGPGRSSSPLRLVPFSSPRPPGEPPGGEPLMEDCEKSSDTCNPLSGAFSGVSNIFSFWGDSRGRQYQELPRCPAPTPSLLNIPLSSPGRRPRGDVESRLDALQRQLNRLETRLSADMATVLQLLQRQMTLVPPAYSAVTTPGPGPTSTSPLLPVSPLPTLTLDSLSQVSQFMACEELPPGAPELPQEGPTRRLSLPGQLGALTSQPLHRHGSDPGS
# assay.procedure: Inhibition of hERG potassium ion channel (CHO cells stably expressing hERG, Qpatch)
measurement.name: 20 uM Inhibition ratio (%)

[[record]]
structure_as_smiles = "Cn1c(-c2ccc3sccc3c2O)nnc(N[C@@H]2CCCC[C@H]2O)c1=O"
result_number = 1.70

[[record]]
structure_as_smiles = "Cn1c(-c2ccc3sccc3c2O)nnc(N[C@@H]2CCCN(C3CC(F)(F)C3)C2)c1=O"
result_number = 19.97

[[record]]
structure_as_smiles = "CCn1c(-c2ccc3sccc3c2O)nnc(N[C@@H]2C[C@@H](F)CN(C)C2)c1=O"
result_number = 14.23

[[record]]
structure_as_smiles = "CN1C[C@H](F)C[C@@H](Nc2nnc(-c3ccc4sccc4c3O)n(C)c2=O)C1"
result_number = 3.48

[[record]]
structure_as_smiles = "C#Cc1ccc(-c2nnc(N[C@@H]3CCCN(C)C3)c(=O)n2C)c(O)c1"
result_number = 6.83

[[record]]
structure_as_smiles = "Cn1c(-c2ccc3sccc3c2O)nnc(N[C@@H]2CCCN(CC3CC3)C2)c1=O"
result_number = 69.48


###

# assayed.target: NLRP3 inflammasome (Homo sapiens)
# Construct: host or cells: THP-1 cells
# Sequence (Q96P20 whole entry): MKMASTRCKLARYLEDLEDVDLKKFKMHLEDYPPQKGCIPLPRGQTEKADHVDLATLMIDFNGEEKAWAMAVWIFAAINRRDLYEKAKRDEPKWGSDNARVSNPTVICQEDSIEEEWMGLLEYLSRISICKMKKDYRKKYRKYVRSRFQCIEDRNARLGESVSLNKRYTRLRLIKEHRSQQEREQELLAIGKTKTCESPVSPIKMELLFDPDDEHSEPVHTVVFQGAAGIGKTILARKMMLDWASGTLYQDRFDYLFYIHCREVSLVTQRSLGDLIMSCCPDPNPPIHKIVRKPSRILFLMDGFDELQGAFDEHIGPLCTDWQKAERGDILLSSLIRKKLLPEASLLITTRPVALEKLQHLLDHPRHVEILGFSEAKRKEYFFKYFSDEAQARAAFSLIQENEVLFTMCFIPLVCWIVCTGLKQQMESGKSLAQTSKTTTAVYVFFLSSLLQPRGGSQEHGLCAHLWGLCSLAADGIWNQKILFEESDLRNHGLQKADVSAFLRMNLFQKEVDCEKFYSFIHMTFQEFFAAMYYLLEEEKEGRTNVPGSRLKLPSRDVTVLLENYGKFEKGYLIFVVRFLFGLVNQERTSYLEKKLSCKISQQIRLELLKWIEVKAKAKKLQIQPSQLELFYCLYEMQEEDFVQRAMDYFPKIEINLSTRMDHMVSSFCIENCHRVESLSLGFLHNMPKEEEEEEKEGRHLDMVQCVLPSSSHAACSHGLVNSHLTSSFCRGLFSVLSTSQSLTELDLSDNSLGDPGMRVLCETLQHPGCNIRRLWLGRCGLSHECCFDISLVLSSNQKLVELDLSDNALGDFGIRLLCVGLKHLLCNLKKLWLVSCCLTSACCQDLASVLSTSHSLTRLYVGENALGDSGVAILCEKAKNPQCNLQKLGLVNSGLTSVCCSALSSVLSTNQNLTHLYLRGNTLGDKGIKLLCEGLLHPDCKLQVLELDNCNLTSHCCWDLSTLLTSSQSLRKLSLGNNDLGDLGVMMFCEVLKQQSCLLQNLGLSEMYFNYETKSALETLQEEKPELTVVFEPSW
# assay.procedure: Inhibitory activity of NLRP3 inflammasome in human monocytes (THP-1 cells, LPS + Nigericin, IL-1β ELISA)
# Assay type: cell-based
# measurement.setup: read-out: IC50
Listing of recorded IC50 by entry.
measurement.name: IC50 (nM)

[[record]]
structure_as_smiles = "CN1CCO[C@H](CNc2nnc(-c3ccc4sccc4c3O)n(C)c2=O)C1"
result_number = 75

[[record]]
structure_as_smiles = "CN1CCC[C@@H](Nc2nnc(-c3ccc(C4CC4)cc3O)n(C)c2=O)C1"
result_number = 30

[[record]]
structure_as_smiles = "C#Cc1ccc(-c2nnc(N[C@@H]3CCCC[C@H]3O)c(=O)n2C)c(O)c1"
result_number = 3.64


###

# assay.procedure: In vivo distribution of cerebrospinal fluid and plasma
# measurement.setup: male, mouse, cerebrospinal fluid, iv, 5 mg/kg
Listing of recorded concentration at 0.25 h by entry.
measurement.name: concentration at 0.25 h

[[record]]
structure_as_smiles = "CN1C[C@H](F)C[C@@H](Nc2nnc(-c3ccc4sccc4c3O)n(C)c2=O)C1"
measurement_name = "concentration at 0.25 h"
result = "191 ng/g"

[[record]]
structure_as_smiles = "CCN1C[C@H](F)C[C@@H](Nc2nnc(-c3ccc4sccc4c3O)n(CC)c2=O)C1"
measurement_name = "concentration at 0.25 h"
result = "35 ng/g"


###

Listing of recorded concentration at 2 h by entry.
# assay.procedure: In vivo distribution of cerebrospinal fluid and plasma
# measurement.setup: male, mouse, plasma, iv, 5 mg/kg
measurement.name: concentration at 2 h (ng/mL)

[[record]]
structure_as_smiles = "CCN1C[C@H](F)C[C@@H](Nc2nnc(-c3ccc4sccc4c3O)n(CC)c2=O)C1"
result_number = 46

[[record]]
structure_as_smiles = "CN1C[C@H](F)C[C@@H](Nc2nnc(-c3ccc4sccc4c3O)n(C)c2=O)C1"
result_number = 826


###

# assay.procedure: In vivo brain-to-plasma ratio in mice
# measurement.setup: male, mouse, brain/plasma, po, 10 mg/kg
Listing of recorded Kp at 1 h by entry.
measurement.name: Kp at 1 h

[[record]]
structure_as_smiles = "CCN1CCC[C@@H](Nc2nnc(-c3ccc4sccc4c3O)n(CC)c2=O)C1"
measurement_name = "Kp at 1 h"
result_number = 0.13

[[record]]
structure_as_smiles = "CN1CCC[C@@H](Nc2nnc(-c3ccc4sccc4c3O)n(C)c2=O)C1"
measurement_name = "Kp at 1 h"
result_number = 0.53

[[record]]
structure_as_smiles = "CN1C[C@H](F)C[C@@H](Nc2nnc(-c3ccc4sccc4c3O)n(C)c2=O)C1"
measurement_name = "Kp at 1 h"
result_number = 0.19


###

Listing of recorded Kp at 6 h by entry.
# assay.procedure: In vivo brain-to-plasma ratio in mice
# measurement.setup: mouse, brain, po, 10 mg/kg
measurement.name: Kp at 6 h

[[record]]
compound = "CCN1CCC[C@@H](Nc2nnc(-c3ccc4sccc4c3O)n(C)c2=O)C1"
measurement_name = "Kp at 6 h"
result = 0.33

[[record]]
compound = "Cc1nc(N[C@@H]2CCCC[C@H]2O)nnc1-c1ccc(C(F)(F)F)cc1O [Ref-2, reference compound]"
measurement_name = "Kp at 6 h"
result = 0.17

[[record]]
compound = "CCn1c(-c2ccc3sccc3c2O)nnc(N[C@@H]2CCCN(C)C2)c1=O"
measurement_name = "Kp at 6 h"
result = 0.16

[[record]]
compound = "Cn1c(-c2ccc3sccc3c2O)nnc(N[C@@H]2CCCN(CCO)C2)c1=O"
measurement_name = "Kp at 6 h"
result = 0.46


###

# assay.procedure: Pharmacokinetic evaluation in Balb/c mice
# Type: in vivo
# measurement.setup: mouse, in vivo; 5 mg/kg, PO, Balb/c mice; read-out: T1/2 (converted)
measurement.name: half-life

[[record]]
molecule = "CCN1C[C@H](F)C[C@@H](Nc2nnc(-c3ccc(C4CC4)cc3O)n(C)c2=O)C1"
result = "3.85 h"

[[record]]
molecule = "CC(C)N1CCC[C@@H](Nc2nnc(-c3ccc4sccc4c3O)n(C)c2=O)C1"
result = "1.24 h"

[[record]]
molecule = "CCN1CCC[C@@H](Nc2nnc(-c3ccc4c(c3O)CCC4=C(F)F)n(C)c2=O)C1"
result = "2.82 h"

[[record]]
molecule = "CN1CCC[C@@H](Nc2nnc(-c3ccc4c(c3O)CCC4=C(F)F)n(C)c2=O)C1"
result = "5.47 h"

[[record]]
molecule = "CC(C)n1c(-c2ccc3sccc3c2O)nnc(N[C@@H]2CCCN(C)C2)c1=O"
result = "4.25 h"

[[record]]
molecule = "Cn1c(-c2ccc3sccc3c2O)nnc(N[C@@H]2CCCN(CCO)C2)c1=O"
result = "0.85 h"

[[record]]
molecule = "CN1C[C@H](F)C[C@@H](Nc2nnc(-c3ccc4sc(F)cc4c3O)n(C)c2=O)C1"
result = "3.16 h"

[[record]]
molecule = "[2H]C([2H])([2H])n1c(-c2ccc3sccc3c2O)nnc(N[C@@H]2CCCN(CC)C2)c1=O"
result = "2.91 h"

[[record]]
molecule = "CCn1c(-c2ccc3sccc3c2O)nnc(N[C@@H]2CCCN(C)C2)c1=O"
result = "4.2 h"

[[record]]
molecule = "CCn1c(-c2ccc3sccc3c2O)nnc(N[C@@H]2C[C@@H](F)CN(C)C2)c1=O"
result = "2.25 h"

[[record]]
molecule = "CN1CCC[C@@H](Nc2nnc(-c3ccc(C(F)(F)F)cc3O)n(C)c2=O)C1 [Ref-3, reference compound]"
result = "0.87 h"

[[record]]
molecule = "Cc1nc(N[C@@H]2CCCC[C@H]2O)nnc1-c1ccc(C(F)(F)F)cc1O [Ref-2, reference compound]"
result = "2.6 h"

[[record]]
molecule = "[2H]C([2H])([2H])C([2H])([2H])N1CCC[C@@H](Nc2nnc(-c3ccc4sccc4c3O)n(C)c2=O)C1"
result = "3.18 h"

[[record]]
molecule = "COCCn1c(-c2ccc3sccc3c2O)nnc(N[C@@H]2CCCN(C)C2)c1=O"
result = "2.39 h"

[[record]]
molecule = "CCN1CCC[C@@H](Nc2nnc(-c3ccc4sccc4c3O)n(C)c2=O)C1"
result = "4.9 h"

